studySystem: TONSL ARD (amino acid 512-692 of TONSL of SEQ ID NO: 16) (Homo sapiens, UniProt Q96HA7)
Construct: GST (N, cleaved yes); made in house; host or cells: E. coli BL21(DE3)-RIL
Sequence (Q96HA7 512-692): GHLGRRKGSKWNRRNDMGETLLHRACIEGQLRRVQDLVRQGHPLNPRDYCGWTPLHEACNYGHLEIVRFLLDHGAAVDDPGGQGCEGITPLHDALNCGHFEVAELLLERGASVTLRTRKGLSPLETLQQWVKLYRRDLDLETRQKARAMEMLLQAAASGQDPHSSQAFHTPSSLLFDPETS
testSummary: Native MS analysis of protein-peptide complexes
Type: binding
conditions: 10 μM TONSL-ARD, 50 mM NH4OAc pH 7.5
Where no end group is shown, it is not given here.
outcomeMeasure: % P1L1 (proportion of 1:1 stoichiometry protein-peptide complex) (%)

INSERT INTO results (substance, testvalue) VALUES
  ('KGGAKRHAKVLR-NH2 [Example 14]', 73.3),
  ('AKRHRKVLR-NH2 [Example 12]', 62.6),
  ('KGGAKRHRKVLR-NH2 [Example 13]', 89.9),
  ('KGGAARHRKVLR-NH2 [Example 15]', 81.4);

These measurements were taken from patent US10961289B2.
